# PROCEDURE SUMMARY: Evaluation of blood-brain barrier (BBB) permeability through oral administration
# Format: in vivo, mice
# DETAILS: mouse, in vivo; mice, oral, dose 30 mg/kg, 4 hr; read-out: Mean drug concentrations in plasma at 4 hr
Quick reference: concentration at 4 h of the listed items.

COMPOUND: CC(C)c1ccc(-c2cc3c(cc2F)[C@H](NC(=O)O[C@@H]2CN4CCC2CC4)C(C)(C)C3)cc1 [Example 59]
MEASUREMENT UNIT: ng/mL
concentration at 4 h: 436

COMPOUND: CC(C)Oc1ccc(-c2ccc3c(c2)CCC(C)(C)[C@H]3NC(=O)O[C@@H]2CN3CCC2CC3)cc1F [Example 161]
MEASUREMENT UNIT: ng/mL
concentration at 4 h: 1240

COMPOUND: CCCOc1ccc(-c2cc3c(cc2F)[C@H](NC(=O)O[C@@H]2CN4CCC2CC4)C(C)(C)C3)cc1 [Example 69]
MEASUREMENT UNIT: ng/mL
concentration at 4 h: 433

COMPOUND: CC(C)Oc1ccc(-c2ccc3c(c2)CCC(C)(C)[C@H]3NC(=O)O[C@@H]2CN3CCC2CC3)c(Cl)c1 [Example 168]
MEASUREMENT UNIT: ng/mL
concentration at 4 h: 2890

COMPOUND: CC(C)Oc1ccc(-c2cc3c(cc2F)[C@H](NC(=O)O[C@@H]2CN4CCC2CC4)C(C)(C)CC3)cc1Cl [Example 193]
MEASUREMENT UNIT: ng/mL
concentration at 4 h: 871

COMPOUND: CCOc1ccc(-c2cc3c(cc2F)[C@H](NC(=O)O[C@@H]2CN4CCC2CC4)C(C)(C)C3)c(Cl)c1 [Example 104]
MEASUREMENT UNIT: ng/mL
concentration at 4 h: 1380

COMPOUND: CC(C)c1cccc(-c2ccc3c(c2)CCC(C)(C)[C@H]3NC(=O)O[C@@H]2CN3CCC2CC3)c1 [Example 162]
MEASUREMENT UNIT: ng/mL
concentration at 4 h: 967

Recorded values, source patent US20240262819A1.
